Biological target: Luciferin 4-monooxygenase (Photinus pyralis) (UniProt P08659)
Sequence (P08659 whole entry, looked up): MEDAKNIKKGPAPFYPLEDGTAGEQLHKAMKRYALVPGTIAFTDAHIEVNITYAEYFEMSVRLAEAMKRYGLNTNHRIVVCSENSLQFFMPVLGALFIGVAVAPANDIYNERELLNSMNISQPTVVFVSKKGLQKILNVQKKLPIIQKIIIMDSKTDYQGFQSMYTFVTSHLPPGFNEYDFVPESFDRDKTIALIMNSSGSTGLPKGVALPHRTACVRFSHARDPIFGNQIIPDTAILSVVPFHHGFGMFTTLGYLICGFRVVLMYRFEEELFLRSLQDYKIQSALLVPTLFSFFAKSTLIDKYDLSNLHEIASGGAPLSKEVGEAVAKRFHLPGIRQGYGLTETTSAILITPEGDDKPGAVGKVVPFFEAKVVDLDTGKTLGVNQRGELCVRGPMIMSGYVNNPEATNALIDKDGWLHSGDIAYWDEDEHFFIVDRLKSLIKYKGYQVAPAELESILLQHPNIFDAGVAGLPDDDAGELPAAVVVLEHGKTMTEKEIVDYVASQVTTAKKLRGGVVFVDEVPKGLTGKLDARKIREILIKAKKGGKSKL
Assay: qHTS profiling assay for firefly luciferase inhibitor/activator using purifed enzyme and Km concentrations of substrates (counterscreen for miR-21 project); note: nearly all actives have a fitted effect of over 55% in size
Details: purified FLuc, luminescence inhibition; series mostly up to 57.5 µM
About 25,000 (6.9%) of roughly 360,000 compounds were called active. About 9% were inconclusive and are not listed. Calls come from the whole dose curve; as a rule, active = well fitted inhibition curve with a large enough effect; inconclusive = small, poorly fitted or top-dose-only effect; inactive = flat fitted curve, though single readings scatter. This is one part of a sample in which actives are shown more often than they occur.
Pick one and only one: class 1 (active), class 0 (inactive)

Prompt: # lookup: test call for `Cc1ccc(Cn2c(=O)n(-c3ccc(C)cc3)c(=O)c3c2c2cc(C)ccc2n3C)cc1`
Response: class 0

Prompt: # lookup: test call for CC(/C=C/c1ccco1)=N/NC(=O)C1COc2ccccc2O1 (stereo not given)
Response: class 0

Prompt: # lookup: test call for `O=C(c1ccc2c(c1)N(Cc1ccccc1)C(=O)c1ccccc1S2(=O)=O)N1CCC(Cc2ccccc2)CC1`
Response: class 0

Prompt: # lookup: test call for CC1CCCCN1S(=O)(=O)c1ccc(F)c(C(=O)Nc2ccccc2C(F)(F)F)c1 (stereo not given)
Response: class 0

Prompt: # lookup: test call for CCOC(=O)C1CCC(CN(Cc2ccc(OC)cc2)S(=O)(=O)c2ccc(F)c(C(=O)Nc3cc(C)ccc3C)c2)CC1 (stereo not given)
Response: class 0

Prompt: # lookup: test call for `CCOC(=O)c1ccc(NC(=O)Cn2c(=O)cc(C)c3c(C)nn(-c4cccc(F)c4)c32)cc1`
Response: class 0

Prompt: # lookup: test call for COc1ccc(NC(=O)CC2COc3ccccc3O2)c(OC)c1 (stereo not given)
Response: class 0

Prompt: # lookup: test call for `COc1ccc(NS(=O)(=O)c2cc(NC(=O)COc3ccccc3F)ccc2OC)cc1`
Response: class 0

Prompt: # lookup: test call for `CC(C)(C)OC(=O)N1CCC(c2c(C(=O)NCc3ccccn3)cnn2-c2ccc(F)cc2)CC1`
Response: class 0

Prompt: # lookup: test call for COc1ccc(NC(=O)C2COc3ccccc3O2)cc1 (stereo not given)
Response: class 1

Prompt: # lookup: test call for `COc1ccc2c(CC(=O)OCC(=O)Nc3ccccc3[N+](=O)[O-])coc2c1`
Response: class 0

Prompt: # lookup: test call for O=C(Nc1ncc([N+](=O)[O-])s1)C1COc2ccccc2O1 (stereo not given)
Response: class 1

Prompt: # lookup: test call for `O=C(Cc1c(F)cccc1Cl)Nc1ccc(-n2cnnn2)cc1`
Response: class 0

Prompt: # lookup: test call for `COc1ccc(-c2nnc(SCC(=O)Nc3ccc(C(C)C)cc3)nc2-c2ccc(OC)c(OC)c2)cc1OC`
Response: class 0

Prompt: # lookup: test call for `CC(C)Cc1nnc(NC(=O)CCc2ccccc2)s1`
Response: class 0

Prompt: # lookup: test call for `O=C(Cc1c(F)cccc1Cl)Nc1ncc([N+](=O)[O-])s1`
Response: class 1

Prompt: # lookup: test call for Cc1nnc(N2CCCC(C(=O)NCCN(C)C)C2)c2nn(-c3ccccc3)c(C)c12 (stereo not given)
Response: class 0

Prompt: # lookup: test call for Cc1ccccc1N1CC(C(=O)Nc2nnc(SCCC3OCCO3)s2)CC1=O (stereo not given)
Response: class 0

Prompt: # lookup: test call for CC(C)CCNC(=O)Cn1c(=O)oc2cc(S(=O)(=O)N3CC(C)CC(C)C3)ccc21 (stereo not given)
Response: class 0

Prompt: # lookup: test call for `Cc1c(Cl)cccc1NC(=O)C(=O)NCCc1csc2nc(-c3ccccc3F)nn12`
Response: class 0

====

Molecular target: Luciferin 4-monooxygenase (Photinus pyralis)
Assay: qHTS profiling assay for firefly luciferase inhibitor/activator using purifed enzyme and Km concentrations of substrates (counterscreen for miR-21 project); note: nearly all actives have a fitted effect of over 55% in size
Details: purified FLuc, luminescence inhibition; series mostly up to 57.5 µM
Among all 360,000 compounds or so, about 25,000 (6.9%) were called active. Roughly 9% stayed inconclusive and do not appear here. Calls follow the shape of the dose curve; as a rule, active = well fitted inhibition curve with a large enough effect; inconclusive = small, poorly fitted or top-dose-only effect; inactive = flat fitted curve, though single readings scatter. The full list was thinned out, with actives kept by preference.
Pick one and only one: active, inactive

Prompt: # lookup: test call for `NC(=O)COc1ccc(NC(=O)c2ccccc2-c2ccccc2)cc1`
Response: inactive

Prompt: # lookup: test call for `O=C(NCCSc1ccccc1)c1ccco1`
Response: active

Prompt: # lookup: test call for `O=C(NCCS(=O)(=O)N1CCN(c2ccccc2)CC1)c1ccco1`
Response: inactive

Prompt: # lookup: test call for `NC(=O)COc1ccc(C23CC4CC(CC(C4)C2)C3)cc1`
Response: active

Prompt: # lookup: test call for `NC(=O)COc1ccccc1C(=O)NC12CC3CC(CC(C3)C1)C2`
Response: inactive

Prompt: # lookup: test call for COc1cc(C(CC(=O)NCCC(C)C)N2Cc3ccccc3C2=O)cc(OC)c1OC (stereo unspecified)
Response: inactive

====

Biological target: Luciferin 4-monooxygenase (Photinus pyralis)
Test: qHTS profiling assay for firefly luciferase inhibitor/activator using purifed enzyme and Km concentrations of substrates (counterscreen for miR-21 project); note: nearly all actives have a fitted effect of over 55% in size
Details: purified FLuc, luminescence inhibition; series mostly up to 57.5 µM
In all, about 360,000 compounds went through this assay and about 25,000 (6.9%) were called active. Inconclusive results (about 9%) are left out. Calls follow the shape of the dose curve; as a rule, active = well fitted inhibition curve with a large enough effect; inconclusive = small, poorly fitted or top-dose-only effect; inactive = flat fitted curve, though single readings scatter. What follows is part of a selection rich in actives, with near analogues and random picks from the rest.
Pick one and only one: active, inactive

Prompt: # lookup: test call for `COc1ccc(/C=C/C(=O)c2ccc(OC)cc2O)cc1`
Response: active

Prompt: # lookup: test call for `CC(=O)N1CCCc2cc(S(=O)(=O)Nc3ccc(Cl)cc3F)ccc21`
Response: inactive

Prompt: # lookup: test call for CCOC(=O)C1CCCN(C(=O)/C=C/c2ccc(OC)cc2)C1 (stereo unspecified)
Response: inactive

Prompt: # lookup: test call for `COc1ccc(/C=N/OCC(=O)N(Cc2ccccc2)c2ccccc2C(=O)O)cc1`
Response: inactive

Prompt: # lookup: test call for `O=C(NCc1ccccc1)C1CCN(S(=O)(=O)c2ccc3[nH]c(=O)ccc3c2)CC1`
Response: inactive

Prompt: # lookup: test call for `COc1ccccc1/C=C/C(=O)NC(=S)N1CCOCC1`
Response: active

Prompt: # lookup: test call for `Cc1c(C(=O)OC(C)C)sc(NC(=O)c2cccnc2)c1C#N`
Response: active

Prompt: # lookup: test call for `COc1ccc(/C=N/Nc2nc(-c3ccc(C)cc3)c(C#N)c(=O)[nH]2)cc1`
Response: inactive

Prompt: # lookup: test call for `O=C(NCCCN1CCN(c2cccc(Cl)c2)CC1)c1nnc(Cc2ccc(F)cc2Cl)o1`
Response: inactive

Prompt: # lookup: test call for `COc1ccc(/C=N/Nc2ccccc2C(=O)O)cc1`
Response: active

Prompt: # lookup: test call for `CC(C)NS(=O)(=O)c1ccc(NC(=O)c2cccnc2)cc1`
Response: inactive

====

Target: Luciferin 4-monooxygenase (Photinus pyralis)
Assay: qHTS profiling assay for firefly luciferase inhibitor/activator using purifed enzyme and Km concentrations of substrates (counterscreen for miR-21 project); note: nearly all actives have a fitted effect of over 55% in size
Conditions: purified FLuc, luminescence inhibition; series mostly up to 57.5 µM
The campaign covered roughly 360,000 compounds. About 25,000 (6.9%) were called active. Inconclusive results (about 9%) are left out. The call rests on the fitted dose curve; in most records, active means well fitted inhibition curve with a large enough effect; inconclusive means small, poorly fitted or top-dose-only effect; inactive means flat fitted curve, though single readings scatter. The sample as a whole holds a higher share of actives than the screen did.
Pick one and only one: active, inactive

Prompt: # lookup: test call for `Cc1ccc(Nc2nc(N3CCOCC3)nc(N3CCOCC3)n2)cc1Cl`
Response: inactive

Prompt: # lookup: test call for `Cc1ccc(NC(=O)CN2C(=O)C(c3ccc(F)cc3)=NC23CCCCCC3)c(C)c1`
Response: inactive

Prompt: # lookup: test call for `Cc1ccc(COc2ccc(/C=N/NC(=O)CN3CCCCC3)cc2)cc1`
Response: inactive

Prompt: # lookup: test call for N#Cc1c(NC(=O)C2CCCO2)sc2c1CCCCC2 (stereo unspecified)
Response: active

Prompt: # lookup: test call for `COc1ccc(OC)c(-c2nc(C(N)=O)c3c(n2)n(-c2ccc4c(c2)OCO4)c(=O)n3C)c1`
Response: inactive

Prompt: # lookup: test call for `N#Cc1c(NC(=O)CCCl)sc2c1CCCCC2`
Response: inactive

====

Molecular target: Luciferin 4-monooxygenase (Photinus pyralis) (UniProt P08659)
Test: qHTS profiling assay for firefly luciferase inhibitor/activator using purifed enzyme and Km concentrations of substrates (counterscreen for miR-21 project); note: nearly all actives have a fitted effect of over 55% in size
Conditions: purified FLuc, luminescence inhibition; series mostly up to 57.5 µM
In all, about 360,000 compounds went through this assay and about 25,000 (6.9%) were called active. Roughly 9% stayed inconclusive and do not appear here. The call rests on the fitted dose curve; in most records, active means well fitted inhibition curve with a large enough effect; inconclusive means small, poorly fitted or top-dose-only effect; inactive means flat fitted curve, though single readings scatter. The sample as a whole holds a higher share of actives than the screen did.
Pick one and only one: YES for active, NO for inactive

Prompt: # lookup: test call for CC(O)c1ccc(OCCN(C)c2ccccn2)cc1 (stereo unspecified)
Response: YES

Prompt: # lookup: test call for `O=C(COC(=O)CNC(=O)c1ccco1)Nc1ccc(F)cc1`
Response: NO

Prompt: # lookup: test call for `COCCn1c(C)cc(C(=O)COC(=O)CNC(=O)c2ccco2)c1C`
Response: NO

Prompt: # lookup: test call for `COc1cc(C(=O)N2CCC(c3ccncc3)CC2)cc(OC)c1OC`
Response: NO

Prompt: # lookup: test call for `COc1cccc(C(=O)Nc2ccc3nc4n(c(=O)c3c2)CCCCC4)c1`
Response: YES

Prompt: # lookup: test call for `O=C(NC(=O)c1ccccc1N1CCCCC1)Nc1ccc(Br)cc1`
Response: NO

Prompt: # lookup: test call for `O=C(CSc1nc(Nc2ccc(F)c(F)c2)c2ccccc2n1)c1ccc(Cl)cc1`
Response: NO

Prompt: # lookup: test call for `Cc1cc(C(=O)COC(=O)CNC(=O)c2ccc(F)cc2)c(C)n1Cc1ccco1`
Response: YES

Prompt: # lookup: test call for `O=S(=O)(NCCc1nnc2ccc(SCc3ccc(Cl)cc3Cl)nn12)c1ccccc1`
Response: NO

Prompt: # lookup: test call for `O=C(NCc1ccccc1)c1cccc(NC(=O)N2CCSc3ncccc32)c1`
Response: NO

Prompt: # lookup: test call for `Cc1ccccc1Nc1nc(N)nc(COC(=O)CCC(=O)c2ccc(F)cc2)n1`
Response: NO

Prompt: # lookup: test call for `COC(=O)c1ccc(Cn2c(SCC(=O)N(C)c3ccccc3)nc3ccccc32)cc1`
Response: NO

Prompt: # lookup: test call for `Cn1c(=O)[nH]c(=O)c2c1nc(CN1CCN(c3ccccc3F)CC1)n2CCc1ccccc1`
Response: NO

Prompt: # lookup: test call for `CCOC(=O)N1CCc2c(sc3c2c(=O)n(Cc2ccccc2)c(=O)n3CC(=O)Nc2cccc(C)c2)C1`
Response: NO

Prompt: # lookup: test call for `Cc1cccc(NC(=O)CSc2nc3c(oc4ccccc43)c(=O)n2-c2ccc(F)cc2)c1`
Response: NO

Prompt: # lookup: test call for `Cc1ccccc1C(=O)N1CCN(c2ccc(NC(=O)c3cccs3)cc2)CC1`
Response: NO

Prompt: # lookup: test call for CCOc1ccc(C(C(=O)NCCOC)N(CCOC)C(=O)CCC(=O)Nc2ccccn2)cc1 (stereo unspecified)
Response: NO

Prompt: # lookup: test call for `O=C(COc1ccccc1O)NC1CCCC1`
Response: NO

Prompt: # lookup: test call for `Cc1ccc2nc(N3CCN(c4cccc(Cl)c4)CC3)c3nnnn3c2c1`
Response: NO

Prompt: # lookup: test call for O=C(C1Cc2ccccc2CN1C(=O)c1ccco1)N1CCN(c2ccccc2)CC1 (stereo unspecified)
Response: NO

Prompt: # lookup: test call for `O=C(CN1C(=O)COc2ccc(Cl)cc21)Nc1ccc(N2CCOCC2)cc1`
Response: NO
